Source: PubChem BioAssay

Would you mind telling me the reported fluorescence ratio of each entry?
experiment: signal quenchers or enhancers, Cy5 substrate/SSB – biochemical, NIH Clinical Collection, E. coli SSB, artefact control for HCV NS3 helicase inhibitor project (AID 743268); conditions: Cy5-oligo bound E. coli SSB, fluorescence interference
Answers are plain numbers.

Previously resolved entries follow.
>>> value_reported("CC(C)c1ccc2oc3nc(N)c(C(=O)O)cc3c(=O)c2c1")
1.01
>>> value_reported("CC(=O)Nc1ccc(CC(=O)O)cc1")
1.02
>>> value_reported("CC1(C)O[C@@H]2C[C@H]3[C@@H]4C[C@H](F)C5=CC(=O)C=C[C@]5(C)[C@@]4(F)[C@@H](O)C[C@]3(C)[C@]2(C(=O)CO)O1")
1
>>> value_reported("COc1ccccc1OCC(O)CN1CCN(CC(=O)Nc2c(C)cccc2C)CC1 (stereo unspecified)")
1.02
>>> value_reported("N#Cc1ccc(C(c2ccc(C#N)cc2)n2cncn2)cc1")
1

Give me fluorescence ratio for each of these compounds, listed below.
1. COc1cc(C(=O)NS(=O)(=O)c2ccccc2C)ccc1Cc1cn(C)c2ccc(NC(=O)OC3CCCC3)cc12
2. O=C(CCNNC(=O)c1ccncc1)NCc1ccccc1

1: 0.99; 2: 1.01
